# TARGET SYSTEM: Neutrophil collagenase (Homo sapiens)
# TEST SUMMARY: Inhibition of human MMP-8 at 100 uM relative to control
OBSERVATION TYPE: inhibition

Lab note: `N=C(N)NS(=O)(=O)c1ccc(NC(=O)CCS)cc1` gave inhibition of < 10%

Given item `O=C(CCS)Nc1ccccc1C(=O)O` , the value recorded as its inhibition is < 10%

The molecule listed as `NC(=O)NS(=O)(=O)c1ccc(NC(=O)CCS)cc1` has a reported inhibition of < 10%

Per the records, this molecule ( `O=C(CCS)Nc1ccc(Cl)c(Cl)c1` ) has inhibition equal to 22%

For `O=C(CCS)Nc1cccc(C(=O)O)c1` the molecule record lists inhibition as < 10%
